test: The drug is tested on Z-021 corresponding to metagenome with ENA study accession number: PRJEB37062 and ENA sample accession number: ERS12561820 for biotransformation under anaerobic condition. The drug concentrations were measured over 9 timepoints collected between 0 and 24 hours of incubation by liquid-chromatography-coupled mass spectrometry (LC–MS); conditions: 2 µM; also: call rule not given here
Endpoint name: Bacterial Biotransformation

[[record]]
compound = "O=C1CC2(CCCC2)CC(=O)N1CCCCN1CCN(c2ncccn2)CC1"
assay_value = "Compound NOT metabolized"

[[record]]
compound = "C#C[C@]1(OC(C)=O)CC[C@H]2[C@@H]3CCC4=CC(=O)CC[C@@H]4[C@H]3CC[C@@]21C [NORETHINDRONE ACETATE]"
assay_value = "Compound metabolized"

[[record]]
compound = "C[C@H]1C[C@H]2[C@@H]3CCC4=CC(=O)C=C[C@]4(C)[C@@]3(F)[C@@H](O)C[C@]2(C)[C@@]1(O)C(=O)CO"
assay_value = "Compound metabolized"

[[record]]
compound = "Br.CN1CCC[C@@H]1Cc1c[nH]c2ccc(CCS(=O)(=O)c3ccccc3)cc12 [ELETRIPTAN HYDROBROMIDE]"
assay_value = "Compound NOT metabolized"

[[record]]
compound = "C[C@]12C=CC(=O)C=C1CC[C@@H]1[C@@H]2C(=O)C[C@@]2(C)[C@H]1CC[C@]2(O)C(=O)CO"
assay_value = "Compound metabolized"

[[record]]
compound = "CCN(C(C)=O)c1cccc(-c2ccnc3c(C#N)cnn23)c1"
assay_value = "Compound NOT metabolized"

[[record]]
compound = "CN(C/C=C/C#CC(C)(C)C)Cc1cccc2ccccc12"
assay_value = "Compound NOT metabolized"

[[record]]
compound = "C[C@]12CCC(=O)C=C1[C@@H]1C[C@@H]1[C@H]1[C@@H]3[C@@H]4C[C@@H]4[C@@]4(CCC(=O)O4)[C@@]3(C)CC[C@@H]12"
assay_value = "Compound metabolized"

[[record]]
compound = "CC(C)NCC(O)COc1ccc(CC(N)=O)cc1 (stereo not given)"
assay_value = "Compound NOT metabolized"

[[record]]
compound = "CC(C)c1nc(N(C)S(C)(=O)=O)nc(-c2ccc(F)cc2)c1/C=C/[C@@H](O)C[C@@H](O)CC(=O)[O-].CC(C)c1nc(N(C)S(C)(=O)=O)nc(-c2ccc(F)cc2)c1/C=C/[C@@H](O)C[C@@H](O)CC(=O)[O-].[Ca+2]"
assay_value = "Compound NOT metabolized"

[[record]]
compound = "CN1CCC[C@@H]1CCO[C@](C)(c1ccccc1)c1ccc(Cl)cc1.O=C(O)/C=C/C(=O)O [CLEMASTINE FUMARATE]"
assay_value = "Compound NOT metabolized"

[[record]]
compound = "COc1cc2nc(N3CCN(C(=O)C4COc5ccccc5O4)CC3)nc(N)c2cc1OC.CS(=O)(=O)O (stereo not given) [DOXAZOSIN MESYLATE]"
assay_value = "Compound NOT metabolized"

[[record]]
compound = "CC(=O)OCC(=O)NCCCOc1cccc(CN2CCCCC2)c1 [ROXATIDINE ACETATE]"
assay_value = "Compound metabolized"

[[record]]
compound = "C[N+]12CCC(CC1)C(OC(=O)C(O)(c1ccccc1)c1ccccc1)C2.[Br-] (stereo not given) [CLIDINIUM BROMIDE]"
assay_value = "Compound NOT metabolized"

[[record]]
compound = "COc1ccccc1OCCNCC(O)COc1cccc2[nH]c3ccccc3c12 (stereo not given)"
assay_value = "Compound NOT metabolized"

[[record]]
compound = "COc1cc(NC(C)CCCN)c2ncccc2c1.O=P(O)(O)O.O=P(O)(O)O (stereo not given) [PRIMAQUINE PHOSPHATE]"
assay_value = "Compound NOT metabolized"

[[record]]
compound = "CN1C[C@H](C(=O)N[C@]2(C)O[C@@]3(O)[C@@H]4CCCN4C(=O)[C@H](Cc4ccccc4)N3C2=O)C[C@@H]2c3cccc4[nH]cc(c34)C[C@H]21.CS(=O)(=O)O [DIHYDROERGOTAMINE MESYLATE]"
assay_value = "Compound NOT metabolized"

[[record]]
compound = "CCOc1ccc2nc(S(N)(=O)=O)sc2c1 [ETHOXZOLAMIDE]"
assay_value = "Compound metabolized"

[[record]]
compound = "C#C[C@]1(OC(C)=O)CC[C@H]2[C@@H]3CCC4=C[C@@H](OC(C)=O)CC[C@@H]4[C@H]3CC[C@@]21C [ETHYNODIOL DIACETATE]"
assay_value = "Compound metabolized"

[[record]]
compound = "CC(C)(C)NC[C@H](O)COc1nsnc1N1CCOCC1.O=C(O)/C=C\\C(=O)O [TIMOLOL MALEATE]"
assay_value = "Compound NOT metabolized"

[[record]]
compound = "CN1CCCCC1CCN1c2ccccc2Sc2ccc([S+](C)[O-])cc21.O=S(=O)(O)c1ccccc1 (stereo not given) [MESORIDAZINE BESYLATE]"
assay_value = "Compound NOT metabolized"

[[record]]
compound = "CCOc1cc(CC(=O)N[C@@H](CC(C)C)c2ccccc2N2CCCCC2)ccc1C(=O)O [REPAGLINIDE]"
assay_value = "Compound metabolized"

[[record]]
compound = "C=C[C@H]1CN2CC[C@H]1C[C@H]2[C@H](O)c1ccnc2ccc(OC)cc12.C=C[C@H]1CN2CC[C@H]1C[C@H]2[C@H](O)c1ccnc2ccc(OC)cc12.O.O.O=S(=O)(O)O [QUININE SULFATE]"
assay_value = "Compound NOT metabolized"

[[record]]
compound = "CC(=O)CCCCn1c(=O)c2c(ncn2C)n(C)c1=O"
assay_value = "Compound NOT metabolized"

[[record]]
compound = "COc1ccc(CN2CCNCC2)c(OC)c1OC.Cl.Cl [TRIMETAZIDINE DIHYDROCHLORIDE]"
assay_value = "Compound NOT metabolized"

[[record]]
compound = "CSc1ccc2c(c1)C(N1CCN(C)CC1)Cc1ccccc1S2.O=C(O)/C=C\\C(=O)O (stereo not given)"
assay_value = "Compound metabolized"

[[record]]
compound = "CN[C@H]1CC[C@@H](c2ccc(Cl)c(Cl)c2)c2ccccc21"
assay_value = "Compound metabolized"

[[record]]
compound = "CN(C)C(=O)Oc1cccc([N+](C)(C)C)c1.[Br-] [NEOSTIGMINE BROMIDE]"
assay_value = "Compound NOT metabolized"

[[record]]
compound = "CCOC(=O)[C@H](CCc1ccccc1)N[C@@H](C)C(=O)N1Cc2ccccc2C[C@H]1C(=O)O"
assay_value = "Compound NOT metabolized"

[[record]]
compound = "CN1CCN2c3ccccc3Cc3ccccc3C2C1 (stereo not given)"
assay_value = "Compound metabolized"

